Value source: ChEMBL document CHEMBL6134887

assay: Metabolic stability in mouse liver microsomes assessed as half-life at 1 uM measured up to 60 mins by LC-MS/MS analysis; assay type: ADME, Microsome
Use TRUE when the recorded half-life at 1 µM is no lower than 70 s; use FALSE when it is lower.

Example results:
molecule="C=C[C@]1(C)C[C@@H](OC(=O)Cn2cc(-c3ccc(C(O)c4ccc5c(N)ncnn45)nc3)nn2)[C@]2(C)[C@H](C)CC[C@]3(CCC(=O)[C@H]32)[C@@H](C)[C@@H]1O (some centres not stated)" discrete_label=FALSE
molecule=C=C[C@]1(C)C[C@@H](OC(=O)Cn2cc(-c3ccc(Cn4ccnc4)nc3)nn2)[C@]2(C)[C@H](C)CC[C@]3(CCC(=O)[C@H]32)[C@@H](C)[C@@H]1O discrete_label=TRUE
molecule=C=C[C@]1(C)C[C@@H](OC(=O)Cn2cc(-c3cncc(NC(=O)c4ccc(OC)cc4)c3)nn2)[C@]2(C)[C@H](C)CC[C@]3(CCC(=O)[C@H]32)[C@@H](C)[C@@H]1O discrete_label=FALSE
molecule=C=C[C@]1(C)C[C@@H](OC(=O)Cn2cc(-c3cccc(Nc4cc(N)ncn4)c3)nn2)[C@]2(C)[C@H](C)CC[C@]3(CCC(=O)[C@H]32)[C@@H](C)[C@@H]1O discrete_label=FALSE
molecule=O=C(O)Cc1ccccc1Nc1c(Cl)cccc1Cl discrete_label=TRUE

Next up:
Prompt: Tell me whether half-life at 1 µM is at least 70 s here: `C=C[C@]1(C)C[C@@H](OC(=O)Cn2cc(-c3cncc(NC(=O)c4cnc(OC)cn4)c3)nn2)[C@]2(C)[C@H](C)CC[C@]3(CCC(=O)[C@H]32)[C@@H](C)[C@@H]1O`
Completion: FALSE
